Measured Activity by item
System: Radical scavenging activity
Assay: Antioxidant activity assessed as DPPH free radical scavenging activity at 200 ug/ml after 30 min relative to control
Assay type: functional
API: value field is a number in %; no unit string.

Worked examples follow.
• O=C(O)CC1(C/N=C/c2c(F)cccc2Cl)CCCCC1 = 69.1
• O=C(O)CC1(C/N=C/c2ccc(F)cc2)CCCCC1 = 62.8
• C/C(=N\CC1(CC(=O)O)CCCCC1)c1cccc(C#N)c1 = 49.8
• C/C(=N\CC1(CC(=O)O)CCCCC1)c1ccccn1 = 51.6
• O=C(O)CC1(C/N=C/c2ccccn2)CCCCC1 = 59.7
• CCOc1ccc(/C(C)=N/CC2(CC(=O)O)CCCCC2)cc1 = 74.6

Kindly consider the entry below.
-- ask Sample O=C(O)CC1(C/N=C/c2ccccc2O)CCCCC1 — what was its Activity?
-- reply 71.3

====

System: Radical scavenging activity
Test: Antioxidant activity assessed as DPPH free radical scavenging activity at 150 ug/ml after 30 min relative to control
Type: functional
parameter: Activity

• C=NCC1(CC(=O)O)CCCCC1 = 40.6%
• C/C(=N\CC1(CC(=O)O)CCCCC1)c1cccnc1 = 42.1%
• COc1cc(/C=N/CC2(CC(=O)O)CCCCC2)ccc1O = 64.9%
• CCOc1ccc(/C(C)=N/CC2(CC(=O)O)CCCCC2)cc1 = 66.7%
• COc1ccc(/C=N/CC2(CC(=O)O)CCCCC2)cc1 = 59.8%

-- ask Entry O=C(O)CC1(C/N=C/c2ccccn2)CCCCC1 : reported Activity = ?
-- reply 50.3%

-- ask Name the reported Activity value associated with the compound O=C(O)CC1(C/N=C/c2ccc(F)cc2)CCCCC1
-- reply 53.8%

-- ask Record request: Activity value, item C/C(=N\CC1(CC(=O)O)CCCCC1)c1ccccn1
-- reply 42.5%

-- ask Please look up its Activity: O=C1O[C@H]([C@@H](O)CO)C(O)=C1O
-- reply 86.4%

-- ask Returns the measured Activity for the input compound. Input: C/C(=N\CC1(CC(=O)O)CCCCC1)c1cccc(C#N)c1
-- reply 41%

-- ask Query (compound): O=C(O)CC1(C/N=C/c2ccccc2Cl)CCCCC1 ; field requested: Activity
-- reply 56.7%

-- ask Field request: Activity | item: C/C(=N\CC1(CC(=O)O)CCCCC1)c1c[nH]c2ccccc12
-- reply 43.8%

-- ask I'd like to know its Activity. The compound in question is O=C(O)CC1(C/N=C/c2ccccc2O)CCCCC1
-- reply 60.6%

-- ask Data request, read-out Activity, for O=C(O)CC1(C/N=C/c2ccccc2)CCCCC1
-- reply 41.3%

====

Measured Activity by item
Tested on: Radical scavenging activity
Assay: Antioxidant activity assessed as DPPH free radical scavenging activity at 200 ug/ml after 30 min relative to control
Assay type: functional
Form entry: value (%) — number only.

Example results:
- C=NCC1(CC(=O)O)CCCCC1: 48.9
- O=C(O)CC1(C/N=C/c2ccccc2Cl)CCCCC1: 66.4
- C/C(=N\CC1(CC(=O)O)CCCCC1)c1c[nH]c2ccccc12: 55.8
- C/C(=N\CC1(CC(=O)O)CCCCC1)c1ccc2ccccc2c1: 48.4
- C/C(=N\CC1(CC(=O)O)CCCCC1)c1cccnc1: 51

Next compound, Activity to be filled in.
-- ask Could you share which Activity value was measured for CCOc1ccc(/C=N/CC2(CC(=O)O)CCCCC2)cc1 ?
-- reply 74.5

====

# Activity per entry
Tested on: Radical scavenging activity
Assay: Antioxidant activity assessed as DPPH free radical scavenging activity at 200 ug/ml after 30 min relative to control
Format: functional
Form entry: enter the amount, then its unit.

-- ask Return Activity measured with Radical scavenging activity given this molecule: O=C(O)CC1(C/N=C/c2ccccc2)CCCCC1
-- reply 49.8%

-- ask Missing value: Activity, Radical scavenging activity, entry C/C=N/CC1(CC(=O)O)CCCCC1 . Fill in?
-- reply 49.5%

-- ask Give recorded Activity with Radical scavenging activity for the following molecule: O=C1O[C@H]([C@@H](O)CO)C(O)=C1O
-- reply 99.3%

-- ask Give recorded Activity with Radical scavenging activity for the following molecule: COc1cc(/C=N/CC2(CC(=O)O)CCCCC2)ccc1O
-- reply 78.2%

-- ask Activity of COc1ccc(/C=N/CC2(CC(=O)O)CCCCC2)cc1 on Radical scavenging activity?
-- reply 69.5%

====

Tested on: Radical scavenging activity
Test: Antioxidant activity assessed as DPPH free radical scavenging activity at 150 ug/ml after 30 min relative to control
Assay type: functional
Below, each of the compounds is paired with its reported Activity value.
Entry rule: numbers only, all in %.

-- ask Can you share its Activity? I mean this compound: CCOc1ccc(/C=N/CC2(CC(=O)O)CCCCC2)cc1
-- reply 66.4

-- ask Query (compound): O=C(O)CC1(C/N=C/c2c(F)cccc2Cl)CCCCC1 ; field requested: Activity
-- reply 58

-- ask Bench note: what Activity did C/C(=N\CC1(CC(=O)O)CCCCC1)c1ccc2ccccc2c1 show?
-- reply 37.2

-- ask Would you mind telling me what Activity value was observed for C/C=N/CC1(CC(=O)O)CCCCC1 ?
-- reply 41

Values were extracted from ChEMBL document CHEMBL3044841.
